- METHOD SUMMARY: PK Oral (MMV)
- Type: in vivo
- TEST CONDITIONS: in vivo, dose 25 mg/kg
OBSERVED PROPERTY: Tmax (h)
Give your result in h as a bare value.

* CCOCCNc1ncnc2c1c(-c1ccc3cc(OCC)ccc3c1)cn2CC(C)(C)O | 1
* CNc1ncnc2c1c(-c1ccc3cc(OC4CC4)ccc3c1)nn2CC(C)(C)O | 3

// next item, Tmax requested
Problem: Specify measured Tmax for CCOc1ccc2cc(-c3cn(CC(C)(C)O)c4ncnc(OCCOC)c34)ccc2c1 .
Result: 0.667

###

- Test system: PC3
- METHOD SUMMARY: MTT proliferation assay, PC3
- TEST CONDITIONS: Homo sapiens, PC-3, read-out: EC50 PC3
OBSERVED PROPERTY: EC50

Problem: Specify measured EC50 for CNc1ncnc2c1c(-c1ccc3cc(OC4CC4)ccc3c1)nn2CC(C)(C)O [Example 1] .
Result: > 20 µM

Data provenance is patent US12522606B2.
